test-target: human TLR8 (Homo sapiens)
Sequence (Q9NR97 27-1041): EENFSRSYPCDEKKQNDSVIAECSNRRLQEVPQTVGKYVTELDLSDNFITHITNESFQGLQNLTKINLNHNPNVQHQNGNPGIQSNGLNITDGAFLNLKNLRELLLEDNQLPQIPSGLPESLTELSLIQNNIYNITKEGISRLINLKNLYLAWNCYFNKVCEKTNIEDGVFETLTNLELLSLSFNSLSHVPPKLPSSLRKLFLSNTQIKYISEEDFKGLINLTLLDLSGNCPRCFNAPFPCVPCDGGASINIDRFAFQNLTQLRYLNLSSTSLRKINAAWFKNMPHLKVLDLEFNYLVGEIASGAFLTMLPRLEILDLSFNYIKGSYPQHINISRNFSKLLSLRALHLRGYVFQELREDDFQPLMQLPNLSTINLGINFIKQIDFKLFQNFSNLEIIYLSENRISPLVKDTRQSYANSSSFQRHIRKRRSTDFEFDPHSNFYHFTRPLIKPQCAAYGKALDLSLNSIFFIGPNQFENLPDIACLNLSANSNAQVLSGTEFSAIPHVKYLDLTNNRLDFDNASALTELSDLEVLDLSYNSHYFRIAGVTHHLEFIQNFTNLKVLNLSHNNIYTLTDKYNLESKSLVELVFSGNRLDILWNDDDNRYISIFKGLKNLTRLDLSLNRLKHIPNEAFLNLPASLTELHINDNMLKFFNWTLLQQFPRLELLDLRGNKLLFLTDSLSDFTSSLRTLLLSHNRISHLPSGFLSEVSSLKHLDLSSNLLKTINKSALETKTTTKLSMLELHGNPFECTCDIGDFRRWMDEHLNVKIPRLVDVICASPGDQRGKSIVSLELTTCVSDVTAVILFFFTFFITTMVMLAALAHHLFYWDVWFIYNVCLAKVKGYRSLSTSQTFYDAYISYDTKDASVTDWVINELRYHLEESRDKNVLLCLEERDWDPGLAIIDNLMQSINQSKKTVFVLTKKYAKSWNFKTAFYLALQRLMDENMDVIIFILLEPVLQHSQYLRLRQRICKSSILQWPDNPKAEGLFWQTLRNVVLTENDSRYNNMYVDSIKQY
procedure-text: HEK293-Blue-hTLR-8 cells assay (SEAP reporter, R848 stimulation)
protocol-conditions: HEK293-Blue-hTLR8 cells, R848, 20 hrs; read-out: HEK/hTLR8 IC50
recorded-metric: pIC50
Note on units: pIC50 is unitless, being -log10 of a concentration expressed in mol/L.

Entry C[C@@H]1CN(c2ccc(C#N)c3ncccc23)C[C@H](CN2CCN(c3ncnc4c3CNCC4)CC2)O1 , pIC50 reported as 8.00

All values here come from patent EP3807270B1.
